# Tested on: EMC-BAC-2
# protocol text: relative viability (nuclei count vs DMSO), 5 days (fraction); higher = more cells survive
# applied conditions: first compound 0.05 µM
measurement kind: relative viability
Just the number, please, no unit after it.

1. CC1(C)CCC(c2ccc(Cl)cc2)=C(CN2CCN(c3ccc(C(=O)NS(=O)(=O)c4ccc(N[C@H](CCN5CCOCC5)CSc5ccccc5)c(S(=O)(=O)C(F)(F)F)c4)cc3)CC2)C1 [Navitoclax] + O=C(CCCCCCC(=O)Nc1ccccc1)NO [Vorinostat] (partner 1 µM) | 0.548
2. CC1(C)CCC(c2ccc(Cl)cc2)=C(CN2CCN(c3ccc(C(=O)NS(=O)(=O)c4ccc(N[C@H](CCN5CCOCC5)CSc5ccccc5)c(S(=O)(=O)C(F)(F)F)c4)cc3)CC2)C1 [Navitoclax] + CC(=O)c1c(C)c2cnc(Nc3ccc(N4CCNCC4)cn3)nc2n(C2CCCC2)c1=O [Palbociclib] (partner 0.5 µM) | 0.532

As a next step, examine the compound that follows.
Quick check: relative viability on EMC-BAC-2, item CC1(C)CCC(c2ccc(Cl)cc2)=C(CN2CCN(c3ccc(C(=O)NS(=O)(=O)c4ccc(N[C@H](CCN5CCOCC5)CSc5ccccc5)c(S(=O)(=O)C(F)(F)F)c4)cc3)CC2)C1 [Navitoclax] + CC(=O)Nc1cccc(-n2c(=O)n(C3CC3)c(=O)c3c(Nc4ccc(I)cc4F)n(C)c(=O)c(C)c32)c1 [Trametinib] (partner 0.02 µM) ?
0.866

###

# System: NCI-H838
# protocol text: relative viability (nuclei count vs DMSO), 5 days (fraction); higher = more cells survive
# applied conditions: first compound 0.1581 µM
Recorded relative viability, one value per entry.
Give your answer as a number; write no unit.

Observe how each entry below is paired with its result.
1. CC1(C)CCC(c2ccc(Cl)cc2)=C(CN2CCN(c3ccc(C(=O)NS(=O)(=O)c4ccc(N[C@H](CCN5CCOCC5)CSc5ccccc5)c(S(=O)(=O)C(F)(F)F)c4)cc3)CC2)C1 [Navitoclax] + Nc1nc2[nH]cc(CCc3ccc(C(=O)N[C@@H](CCC(=O)O)C(=O)O)cc3)c2c(=O)[nH]1 [Pemetrexed] (partner 0.2 µM) | 0.266
2. CC1(C)CCC(c2ccc(Cl)cc2)=C(CN2CCN(c3ccc(C(=O)NS(=O)(=O)c4ccc(N[C@H](CCN5CCOCC5)CSc5ccccc5)c(S(=O)(=O)C(F)(F)F)c4)cc3)CC2)C1 [Navitoclax] + O=C(c1cc(Cc2n[nH]c(=O)c3ccccc23)ccc1F)N1CCN(C(=O)C2CC2)CC1 [Olaparib] (partner 8 µM) | 0.775

Switching to the query record.
// lookup relative viability for CC1(C)CCC(c2ccc(Cl)cc2)=C(CN2CCN(c3ccc(C(=O)NS(=O)(=O)c4ccc(N[C@H](CCN5CCOCC5)CSc5ccccc5)c(S(=O)(=O)C(F)(F)F)c4)cc3)CC2)C1 [Navitoclax] + CS(=O)(=O)CCNCc1ccc(-c2ccc3ncnc(Nc4ccc(OCc5cccc(F)c5)c(Cl)c4)c3c2)o1 [Lapatinib] (partner 2 µM)
0.97

###

# System: EPLC-272H
# protocol text: relative viability (nuclei count vs DMSO), 5 days (fraction); higher = more cells survive
# applied conditions: first compound 2.53 µM
# if measured relative viability < 0.3: true  # else: false

Before answering, review these 9 worked examples.
1) Oc1nc(-c2ccc(C(F)(F)F)cc2)nc2c1CSCC2 [XAV939] + CC(=O)Nc1cccc(-n2c(=O)n(C3CC3)c(=O)c3c(Nc4ccc(I)cc4F)n(C)c(=O)c(C)c32)c1 [Trametinib] (partner 0.02 µM) | true
2) C=C1C(=O)O[C@@H](CCCCCCCC)[C@@H]1C(=O)O [C-75] + NC(=O)Nc1cc(-c2cccc(F)c2)sc1C(=O)N[C@H]1CCCNC1 [AZD7762] (partner 0.2 µM) | true
3) Oc1nc(-c2ccc(C(F)(F)F)cc2)nc2c1CSCC2 [XAV939] + O=C(c1cc(Cc2n[nH]c(=O)c3ccccc23)ccc1F)N1CCN(C(=O)C2CC2)CC1 [Olaparib] (partner 8 µM) | false
4) Oc1nc(-c2ccc(C(F)(F)F)cc2)nc2c1CSCC2 [XAV939] + COc1cc2c(Oc3ccc(NC(=O)C4(C(=O)Nc5ccc(F)cc5)CC4)cc3F)ccnc2cc1OCCCN1CCOCC1 [Foretinib] (partner 0.25 µM) | false
5) C=C1C(=O)O[C@@H](CCCCCCCC)[C@@H]1C(=O)O [C-75] + N=C(N)NC(=N)NCCc1ccccc1 [Phenformin] (partner 250 µM) | true
6) C=C1C(=O)O[C@@H](CCCCCCCC)[C@@H]1C(=O)O [C-75] + Cc1nc(NC(=O)N2CCC[C@H]2C(N)=O)sc1-c1ccnc(C(C)(C)C(F)(F)F)c1 [Alpelisib] (partner 2 µM) | false
7) Oc1nc(-c2ccc(C(F)(F)F)cc2)nc2c1CSCC2 [XAV939] + Cc1nc(Nc2ncc(C(=O)Nc3c(C)cccc3Cl)s2)cc(N2CCN(CCO)CC2)n1 [Dasatinib] (partner 0.075 µM) | true
8) Oc1nc(-c2ccc(C(F)(F)F)cc2)nc2c1CSCC2 [XAV939] + C[C@]1(O)C[C@@H](c2nc(-c3ccc4ccc(-c5ccccc5)nc4c3)c3c(N)nccn32)C1 [Linsitinib] (partner 1 µM) | false
9) Oc1nc(-c2ccc(C(F)(F)F)cc2)nc2c1CSCC2 [XAV939] + CS(=O)(=O)CCNCc1ccc(-c2ccc3ncnc(Nc4ccc(OCc5cccc(F)c5)c(Cl)c4)c3c2)o1 [Lapatinib] (partner 2 µM) | false

Answer whether the molecule Oc1nc(-c2ccc(C(F)(F)F)cc2)nc2c1CSCC2 [XAV939] + Cc1cc(Nc2cc(N3CCN(C)CC3)nc(Sc3ccc(NC(=O)C4CC4)cc3)n2)n[nH]1 [Tozasertib] (partner 0.1 µM) has relative viability strictly less than 0.3
true
